Entry source: patent US20030180744

target or system: T1, KGF (hKGF) (Homo sapiens, UniProt P21781 P21781:32-194)
T1 sequence: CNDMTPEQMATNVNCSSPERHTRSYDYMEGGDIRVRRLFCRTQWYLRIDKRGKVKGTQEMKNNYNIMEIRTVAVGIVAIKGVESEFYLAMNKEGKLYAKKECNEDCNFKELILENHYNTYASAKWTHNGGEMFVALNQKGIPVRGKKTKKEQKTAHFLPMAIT
test: competition; PC-3 cells
run parameters: tags: Upstate Biotechnology
Reported IC50 values for the following binders.

| binder | IC50 (µM) |
| --- | --- |
| 29N (ssRNA, 2'-NH2 pyrimidines) RNA: GGGAGGACGAUGCGGGAGGGGAGAAGAAUGCAGGAAACAGCGAAAUGCGUGUGGCCAGACGACUCGCCCGA | 0.04 |
| 1N (ssRNA, 2'-NH2 pyrimidines) RNA: GGGAGGACGAUGCGGGAAGGGACGAUAAAGAGGAAUCGAACAACAAGUGGCUGGCCAGACGACUCGCCCGA | 0.05 |
| 43N (ssRNA, 2'-NH2 pyrimidines) RNA: GGGAGGACGAUGCGGGAAGUGGAUAGAACAGUCAGAAAUGUAAGCGUGAGGUGCAGACGACUCGCCCGA | 0.8 |
| 14N (ssRNA, 2'-NH2 pyrimidines) RNA: GGGAGGACGAUGCGGUCCAGGGAUUGAAGUGUCGGGGUAGGAACAUAAAGGCGGCCAGACGACUCGCCCGA | 0.006 |
| 42N (ssRNA, 2'-NH2 pyrimidines) RNA: GGGAGGACGAUGCGGGGAGACGUAGACGGGAACAUAGAACGAACAUCAACGCGGCCAGACGACUCGCCCGA | 0.8 |
